molecular target: human Factor IXa (human, UniProt P00740 47-191; P00740 227-461); assay: cell-based or functional assay
Square brackets hold non-standard residues; d marks the D form. Primed or numbered codes have the meaning given here. Side chains are listed from the residue outwards. Ends that are not written are not given here. * marks the point of attachment. Biotin = O=C1N[C@H]2[C@H](CS[C@H]2CCCCC(=O)*)N1; PEG2(3) = PEG2 spacer carrying biotin on Lys
value type: EC50 [µM], FXa generation assay

Look over these answered cases.
binder	EC50 [µM], FXa generation assay
WVPQWKVTCLASCSRLFHGFDA	> 5 µM
RRAPGKLQCLASYCWLFWTGAA	> 1 µM

# evaluate next
Suppose we examine the binder SKQGRPISPDRRAAGKLTCLASYCWLFWTGIA[PEG2(3)]K([PEG2(3)-Biotin]) (cysteine pairing not given here) [SKQGRPISPDRRAAGKLTCLASYCWLFWTGIA-PEG2-K(PEG2-Biotin)] ; what EC50 [µM], FXa generation assay value has been reported?
> 1 µM

Every entry's value here was drawn from patent US20140303084A1.
